# TEST_METHOD_NOTES: Solubility of HPC in benzyl benzoate/castor oil mixtures
# Type: physicochemical
# MEASUREMENT_CONDITIONS: benzyl benzoate/castor oil mixture, 15 °C, oil or lipid, thermodynamic from solid, 15° C., 81.79 wt % BB relative to castor oil; read-out: mg HPC/mL solution (solubility)
# Text: Weight percent of BB is relative to the castor oil.
QUANTITY_KIND: solubility (mg/mL)
Number in mg/mL, nothing else.

Entry under review: CCCCCC(=O)O[C@]1(C(C)=O)CC[C@H]2[C@@H]3CCC4=CC(=O)CC[C@]4(C)[C@H]3CC[C@@]21C [17-HPC, 17-alpha-hydroxyprogesterone caproate] . Reported solubility? 306
